Let's look at some binders and their measured response (photon counts).
- target desc: T1, biotin-MBP-tagged AtHAB1 (residues 172-511), Q9CAJ0
- T1 chain: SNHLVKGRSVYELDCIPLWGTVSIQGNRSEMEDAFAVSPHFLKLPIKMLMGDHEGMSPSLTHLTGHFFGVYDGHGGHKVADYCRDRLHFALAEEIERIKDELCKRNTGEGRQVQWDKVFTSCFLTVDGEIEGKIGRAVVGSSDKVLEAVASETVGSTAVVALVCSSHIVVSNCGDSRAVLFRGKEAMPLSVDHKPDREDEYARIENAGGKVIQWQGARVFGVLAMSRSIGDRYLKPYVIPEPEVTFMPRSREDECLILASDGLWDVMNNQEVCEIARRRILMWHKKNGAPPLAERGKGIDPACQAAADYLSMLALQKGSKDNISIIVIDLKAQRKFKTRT
- assay summary: AlphaScreen
- conditions used: chain shown with the change; DMSO (no ABA); parent: est. 2200; read off a plot
Form: value (number only, do not type unit).

- H6-SUMO-tagged FePYR1 I127A (protein) MEQQPAAAEPEVPAGLGLTAAEYAELQPTVEAYHRYAVGPGQCSSLVAQRIEAPAAAVWAIVRRFDCPQVYKHFIRSCALRPDPDAGDELRPGRLREVSVISGLPASTSTERLDLLDDARRAFGFTATGGEHRLANYRSVTTVSELAPAAPAKICTVVLESYVVDVPEGNSEEDTRLFADTVVRLNLQKLKSLAEANATSAAAQATPPPQAE: 2100
- H6-SUMO-tagged FePYR1 L185C (protein) MEQQPAAAEPEVPAGLGLTAAEYAELQPTVEAYHRYAVGPGQCSSLVAQRIEAPAAAVWAIVRRFDCPQVYKHFIRSCALRPDPDAGDELRPGRLREVSVISGLPASTSTERLDLLDDARRAFGFTITGGEHRLANYRSVTTVSELAPAAPAKICTVVLESYVVDVPEGNSEEDTRLFADTVVRCNLQKLKSLAEANATSAAAQATPPPQAE: 2200

Okay, next one:
Item under review: H6-SUMO-tagged FePYR1 V182L (protein) MEQQPAAAEPEVPAGLGLTAAEYAELQPTVEAYHRYAVGPGQCSSLVAQRIEAPAAAVWAIVRRFDCPQVYKHFIRSCALRPDPDAGDELRPGRLREVSVISGLPASTSTERLDLLDDARRAFGFTITGGEHRLANYRSVTTVSELAPAAPAKICTVVLESYVVDVPEGNSEEDTRLFADTLVRLNLQKLKSLAEANATSAAAQATPPPQAE . Reported response (photon counts)?
2000
